Cited source for all entries: PubChem BioAssay

- method-description: yeast TOR pathway RPL19A-GFP modulators, primary screen, cell-based, S. cerevisiae, multiplex flow cytometry (AID 1862);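 further: lower values mimic rapamycin by blocking the RPL19A rise seen in DMSO cells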
- particulars: S. cerevisiae RPL19A-GFP strain, flow cytometry fluorescence, 3 h; at 10 µM; stronger effect = lower value
Inconclusive results are not listed.
I'd be grateful if you could share measured percent of DMSO control GFP for these entries.
Answers are plain numbers, in %.

See these solved cases before continuing.
[[record]]
molecule = "CCn1cc(C(=O)O)c(=O)c2cnc(N3CCNCC3)nc21"
value_type = "percent of DMSO control GFP"
value_reported = 99.1

[[record]]
molecule = "Cc1ccc2[nH]c3c(c2c1)CN(C(=O)CN1CCSCC1)CC3"
value_type = "percent of DMSO control GFP"
value_reported = 100

[[record]]
molecule = "C[N+]12CCC(CC1)C(OC(=O)C(O)(c1ccccc1)c1ccccc1)C2 (configuration not stated)"
value_type = "percent of DMSO control GFP"
value_reported = 96.8

[[record]]
molecule = "CN1CCC(OC(c2ccccc2)c2ccccc2)CC1"
value_type = "percent of DMSO control GFP"
value_reported = 104


List reported percent of DMSO control GFP for each of these molecules:
1. COc1ccc(-c2nc(C)c(C(C)=O)n2O)cc1OC
2. COC(=O)CN1CC(=O)N(c2ccccc2)C1=S
3. COc1ccc2c(c1)c(CC(=O)O)c(C)n2C(=O)c1ccc(Cl)cc1

Resp:
1. 92.6
2. 101
3. 105

List reported percent of DMSO control GFP for each of these molecules:
1. Cc1cc(-c2nn(-c3ccccc3F)cc2CN2CCC(O)CC2)c(C)s1
2. CC(=O)OCC(=O)C1=CCC2C3CCC4=CC(=O)C=CC4(C)C3(F)C(OC(C)=O)CC12C (configuration not stated)

Resp:
102
99.8

List reported percent of DMSO control GFP for each of these molecules:
1. CCCCOc1ccc(OCCCN2CCOCC2)cc1
2. COc1ccc(-c2[nH]ncc2C=O)cc1OC
3. CC(C)NNC(=O)c1ccncc1

Resp:
[86.5, 99.3, 100]

----------
I'd be grateful if you could share measured GFP response, % of DMSO for these entries.
- method-description: AGP1-GFP expression modulators, hit retest, confirmation, cell-based, flow cytometry, S. cerevisiae, cherry picks (AID 2273);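 further: median GFP channel fluorescence over the whole cell population gate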
- particulars: S. cerevisiae AGP1-GFP strain, 3 h, at 10 µM
Numbers only, in %.

See these solved cases before continuing.
[[record]]
compound = "Cc1cc(C=C2C(=O)c3ccccc3C2=O)c(C)n1-c1cccc(C(=O)O)c1"
value_reported = 100

[[record]]
compound = "Cc1ccc(C)c(NC(=O)c2ccccc2O)c1"
value_reported = 97.3

[[record]]
compound = "COc1ccccc1-c1noc(-c2cccnc2)n1"
value_reported = 96.6

[[record]]
compound = "Cc1cc(O)c(C(=O)/C=C/c2cccc([N+](=O)[O-])c2)c(=O)o1"
value_reported = 107

[[record]]
compound = "O=[N+]([O-])c1cnc(Sc2ccncn2)s1"
value_reported = 111


List reported GFP response, % of DMSO for each of these compounds:
1. Cc1sc(NC(=O)c2cccs2)nc1-c1ccccc1
2. O=C(OC(c1ccc(NS(=O)(=O)c2ccccc2)cc1)(C(F)(F)F)C(F)(F)F)c1ccccc1
3. COc1ccc(CCN2C(=O)c3cccc4cccc(c34)C2=O)cc1OC
4. CN1Cc2sc(NC(=S)NC(=O)c3ccccc3)c(C#N)c2CC1(C)C
5. COc1ccc(NC(=O)C2C3C=CC(C3)C2C(=O)NCc2ccco2)c(OC)c1 (stereo not drawn)
6. O=C(NCc1ccccn1)c1cc(-c2ccc(Cl)cc2)oc1C(F)(F)F

Resp:
97.5
104
105
106
103
99.4

----------
I'd be grateful if you could share measured GFP response, % of DMSO for these entries.
- method-description: modulators of CIT2-GFP expression in yeast, confirmation, S. cerevisiae, GFP fusion, cherry picks, mother/daughter gates (AID 2274)
- particulars: S. cerevisiae CIT2-GFP strain, flow cytometry, 3 h; at 10 µM; stronger effect = higher value
One number for each entry, in %.

See these solved cases before continuing.
[[record]]
compound = "Cc1cc(S(=O)(=O)c2ccc([N+](=O)[O-])cn2)ccc1Br"
value_reported = 120

[[record]]
compound = "COc1ccc(CN2CCSc3sccc3C2=O)cc1"
value_reported = 102

[[record]]
compound = "CCn1c(=O)c(C(=O)NC(C)C)c(O)c2ccccc21"
value_reported = 103

[[record]]
compound = "CCCCCCc1cc2cc(-c3nnc(-c4ccccc4OC)o3)c(=O)oc2cc1O"
value_reported = 100

[[record]]
compound = "Cc1cc(C)c2c(c1)/C(=C/C(=O)c1ccc(Br)s1)C(=O)N2"
value_reported = 94.4


List reported GFP response, % of DMSO for each of these compounds:
1. S=C(Nc1ccc(Cl)cc1)Nc1ccc2cn[nH]c2c1
2. O=C(c1ccc([N+](=O)[O-])o1)N1CCN(c2nc3ccc(F)cc3s2)CC1
3. COc1cc(/C=C2\N=C(C)OC2=O)cc(Cl)c1OC(C)=O

Resp:
1: 103; 2: 101; 3: 108

List reported GFP response, % of DMSO for each of these compounds:
1. CCN(Cc1ccccc1)S(=O)(=O)c1ccc(C(=O)Nc2nnc(C)o2)cc1
2. CCCc1[nH]nc2c1C(c1ccc(O)cc1OCC)C(C#N)=C(N)O2 (stereo unspecified)
3. COc1ccc(-c2noc(CCCc3ccccc3)n2)cc1OC

Resp:
1. 101
2. 104
3. 95.2

----------
- method-description: modulators of CIT2-GFP expression in yeast, confirmation, S. cerevisiae, GFP fusion, cherry picks, mother/daughter gates (AID 2274)
- particulars: S. cerevisiae CIT2-GFP strain, flow cytometry, 3 h; at 10 µM; stronger effect = higher value
I'd be grateful if you could share measured GFP response, % of DMSO for these entries.
Answers are plain numbers, in %.

See these solved cases before continuing.
[[record]]
molecule = "O=C(N/N=C/c1ccccn1)c1sc2ccccc2c1Cl"
value_reported = 84.7

[[record]]
molecule = "O=C(CCc1nc(-c2ccccc2)no1)Nc1cc(C(F)(F)F)ccc1Cl"
value_reported = 112

[[record]]
molecule = "CC(=O)Oc1ccc(N2C(=O)C3C4C=CC(O4)C3C2=O)cc1 (stereo unspecified)"
value_reported = 99.7


List reported GFP response, % of DMSO for each of these molecules:
1. CCOC(=O)c1ccc(NC(=O)CCc2nc(-c3ccccc3)no2)cc1
2. Cc1ccc(Sc2ccc([N+](=O)[O-])cc2[N+](=O)[O-])nc1
3. CCC(=O)c1ccc(N2CCN(C(=O)c3ccc(Br)cc3)CC2)c(F)c1
4. CC(C)COC(=O)NCC12C=CC(O1)C1C(=O)N(c3ccc(Cl)cc3)C(=O)C12 (stereo unspecified)
5. CCN(CC)c1ccc(/C=C2\SC(=O)N(C(C)C)C2=O)o1

Resp:
1. 101
2. 104
3. 95.9
4. 101
5. 112

List reported GFP response, % of DMSO for each of these molecules:
1. Cc1ccc(C(=O)/C=C/C(=O)c2ccc(C)cc2)cc1
2. CC(C)n1c(=S)[nH]c2c1c(=O)[nH]c(=O)n2C
3. COc1ccc(/C=C/C(=O)C2C(=O)C=C(C)OC2=O)cc1O (stereo unspecified)

Resp:
95.9
100
101

----------
- method-description: RPL19A-GFP modulators, yeast TOR pathway, confirmation, cell-based, S. cerevisiae, flow cytometry, cherry picks, mother/daughter gates (AID 2270)
- particulars: S. cerevisiae RPL19A-GFP strain, 3 h, at 10 µM, stronger effect = lower value, 100 = same GFP as DMSO wells
value-type: GFP response vs DMSO (%)
Answers are plain numbers, in %.

[[record]]
molecule = "O=C(c1cccc(COCC(F)(F)C(F)F)c1)N1CCN(c2ccccc2)CC1"
value_reported = 101


List reported GFP response vs DMSO for each of these molecules:
1. O=C1c2ccsc2SCCN1Cc1cccc(F)c1
2. Oc1ccc(Br)cc1/C=N/Nc1ccccn1
3. COc1ccccc1N1CCN(C2CCCN(Cc3cc(F)cc(F)c3)C2)CC1 (stereo unspecified)
4. CCN1/C(=C/c2ccc3cc(C)ccc3[n+]2CC)Sc2ccc3sccc3c21
5. CCOc1ccc(S(=O)(=O)N2CCc3ccccc3C2)cc1
6. COC(=O)Cn1cc(/C=C/[N+](=O)[O-])c2ccccc21
7. CCCCNC(=O)c1cc2c(=O)n3cccc(C)c3nc2n(Cc2ccncc2)c1=N

Resp:
96
93.9
96
96.7
99.7
101
97.2

----------
- method-description: LAP4-GFP expression modulators in yeast, confirmation, cell-based, cherry picks, flow cytometry, mother/daughter gates (AID 2271);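 further: ratio of sample to DMSO plate mean so 100% equals DMSO level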
- particulars: S. cerevisiae LAP4-GFP strain, 3 h, measured here: daughter cell gate response, at 10 µM, stronger effect = higher value, 100 means same as DMSO control
value-type: GFP response relative to DMSO (%)
Give bare numbers, in %.

See these solved cases before continuing.
[[record]]
compound = "Cc1cccc(C(=O)Nc2ccc(O)cc2)c1"
value_reported = 99

[[record]]
compound = "Cc1cc(C)c(S(=O)(=O)ON2C(=O)c3ccccc3C2=O)cc1C"
value_reported = 209

[[record]]
compound = "CC(Oc1cccc(Cl)c1)C(=O)Nc1nc(-c2ccccn2)cs1 (centres undefined)"
value_reported = 140

[[record]]
compound = "COc1ccc(-c2csc(Nc3ncccc3C)n2)cc1"
value_reported = 104

[[record]]
compound = "COc1ccc(-c2nc(-c3ccccc3OC)no2)cc1OC"
value_reported = 99.1

[[record]]
compound = "Cc1cc(C)c(OCC(=O)Nc2nc(-c3ccccn3)cs2)c(C)c1"
value_reported = 115


List reported GFP response relative to DMSO for each of these compounds:
1. O=[N+]([O-])c1ccc(Sc2ccccc2)nc1
2. O=C1c2ccsc2SCCN1Cc1ccc(Cl)cc1

Resp:
104
128

List reported GFP response relative to DMSO for each of these compounds:
1. N#C/C(=C\c1cccc(Oc2ccccc2)c1)C(=O)N1CCOCC1
2. CC(=O)c1ccc(N2CCN(C(=O)c3ccc(Br)cc3)CC2)c(F)c1
3. Cc1ccc(S(=O)(=O)N2CCCC2C(=O)OCc2ccco2)cc1 (centres undefined)
4. CN=C(NC)SC1CC(=O)N(c2ccccc2)C1=O (centres undefined)
5. CCOc1cc(/C=C2\C(=N)N3N=C(S(=O)(=O)CC)SC3=NC2=O)ccc1OC(=O)c1ccco1
6. O=C(COc1ccc(OCc2ccccc2)cc1)NN=C1CCCC1

Resp:
1: 128; 2: 117; 3: 92.5; 4: 98.7; 5: 92.5; 6: 104

List reported GFP response relative to DMSO for each of these compounds:
1. CCc1ccccc1OCc1nnc(N)s1
2. Cc1csc(Nc2ccccc2C(F)(F)F)n1

Resp:
[99.1, 104]

List reported GFP response relative to DMSO for each of these compounds:
1. COC(=O)c1ccc(/C=C/C(=O)c2ccc(OC)cc2)cc1
2. COc1cc(CCN2C(=O)c3cccc4cccc(c34)C2=O)c(S(=O)(=O)NCCCO)cc1OC
3. Cc1ccc(/C=C/C(=O)N2CC(C)CC(C)C2)o1 (centres undefined)
4. Cc1cccc(CSc2cccc3cccnc23)c1
5. Cc1ccccc1NC(=O)CC1SC(=O)N(c2ccccc2)C1=O (centres undefined)
6. N/C(=N\OC(=O)c1cccc(Br)c1)c1ccccc1
7. COCCNC(=O)c1ccccc1-c1nc(-c2ccccc2Cl)no1
8. O=C(NCCCSc1ccccc1)c1cc(Br)ccc1O

Resp:
[108, 96.5, 107, 125, 127, 123, 99.2, 104]
